Reported pKd values are given for each entry in this list.
- target: T1, HBVc18 peptide-MHC complex (HBVc18pMHC), biotinylated recombinant tripartite complex of HLA-A*0201, human … (human; hepatitis B virus)
- T1 construct: also called HLA-A*0201: HBc18; target peptide-MHC complex
- test_method_notes: SPR (ProteOn), biotinylated HBVc18pMHC on NLC chip, ankyrin repeat protein injected, PBST
pKd here: minus log base 10 of the concentration, concentration in moles per litre.

Sample records with pKd:
TCE DARPin® protein #17 (designed binder, not shown: small tags and cut ends) GSDLGQKLLLAAAIGQDDEVRILLAAGADVNAKDESGHTPLHYAAHVGHLEIVEVLLKAGDVNAKDHRGFTPLHVAAQIGHLEIVEVLLKAGADVNAQDNWGITPADLAAWWGHEDIAEVLQKAA | 9.43
TCE DARPin® protein #24 (designed binder, not shown: small tags and cut ends) GSDLGWKLLHAATTGQDDEVRILLAAGADVNAKDESGQTPLHYAAFVGHLEIVEVLLKAGADVNAKDQWGHTPLHVAATFGHLEIVEVLLKAGADVNAQDTWGTTPADLAATFGHEDIAEVLQKAA | 8.33

Now examine the next entry.
The binder listed as TCE DARPin® protein #18 (designed binder, not shown: small tags and cut ends) GSDLGYKLLTAAIVGQDDEVRILLAAGADVNAKDQSGLTPLHLAAAYGHLEIVEVLLKAGADVNAKDKHGRTPLHLAALEGHLEIVEVLLKAGADVNAQDQFGITPADLAAAVGHEDIAEVLQKAA has a reported pKd of 8.15
